Ref: the nanobody polyreactivity screen of Harvey et al. (2022)

Assay protocol: yeast display, Sf9 membrane polyspecificity reagent, FACS + sequencing; frameworks hold sequencing errors
Measured parameter: polyreactivity (PSR sort gate)

{"columns": ["Sequence data", "Result"],
 "data": [
  ["QVQLVESGGGLVQAGGSLRLSCAASGSIFVRNALGWYRQAPGKEREFVAIRFSGATTYYADSVKGRFTISRDNAKNTVYLQMNSLKPEDTAVYYCAAVARTYGRTSYYWGQGTQVTVSS", "high polyreactivity"],
  ["QVQLVESGGGLVQAGGSLRLSCAASGRTFRRYAKGWYRQAPGKERELVATIRSGDNTNYADSVKGRFTISRDNAKNTVYLQMNSLKPEDTAVYYCNRSPKSGQVTYLYSVNAHYDYWGQGTQVSVSS", "low polyreactivity"],
  ["QVQLVESGGGLVQAGGSLRLSCAASGSTIGDNAMGWYRQAPGKERELVASISWSGASTYYADSVKGRFTISRDNAKNTVYLQMNSLKPEDTAVYYCAVYYSYYSHLYHLLFSYWGQGTQVTVSS", "low polyreactivity"],
  ["QVQLVESGGGLVQAGGSLRLLCAASGFTFGFNAMGWYRQAPGKERELVAAISRGGSTNYADSVKGLFTISRDNAKNTVYLQMNSLKPEDTAVYYCAADVITYVFRFYYWGQGTQVTVSS", "low polyreactivity"],
  ["QVQLVESGGGLVQAGGSLRLSCAASGSTFTRNPLGWYRQAPGKERELVATISRSGGSTYYADSVKGRFTISRDNAKNTVYLQMNSLKPEDTAVYYCARPYQYYKFYSHDYWGQGTQVTVSS", "high polyreactivity"],
  ["QVQLVESGGGLVQAGGSLRLSCAASGFTFVYYAMGWYRQAPGKERELVAAISRSGGSTYYADSVKGRFTISRDNAKNTVNLQMNSLKPEDTAVYYCAARKTYGSRLSYEYWGQGTQVTVSS", "high polyreactivity"],
  ["QVQHVESGGGLVQAGGSLRLSCAASGSTFSRYTMGWYRQAPGKERELVAGISRRGGITYYADSVKGRFTISRDNAKNTVYLQMNSLKPEDTAVYYCARTDVYWYGYPYDYWGQGTQVTVSS", "high polyreactivity"],
  ["QVQHVESGARLVQAGGSLRLSCAASGHIFFDYTMGWSRQAPGKERELVAGITIGGSTNYADSVKGRFTISRDNAKNTVYLQMNSLKPEDTAVYYCNVVKYVYIYSYWEYYYWGQGTQVTVSS", "low polyreactivity"],
  ["QVQLVESGGGLVQAGGSLSLSCAASGSTFPKYAMGWYRQAPGKERELVAAISGSGGSTYYADSVKGRFTISRDNAKNTVYLQMNSLKPEDTAVYYSAVAWNVRGVGARQRDIYGYWGQGTQVTVST", "high polyreactivity"],
  ["QVQLVESGGGLVQAGGSLRLSCAASGSIFWRYAMGWYRQAPGKERELVAVISRSGGRTYYADSVKGRFTISRDNAKNTVYLQMNSLKPEDTAVNYCAADYYGVYSKRYGFDYWGQGTQVTVSS", "high polyreactivity"],
  ["QVQLVESWGGLVQAAASLRLICDASGRTIRWSAMGWYRPAPGKERELVATITTSGTPSYADSVKGRFTISRDNAKNTVYLQMNSLTPEDTAVYYCAADTYPWGGSSSYDWGQGTQVTVSS", "high polyreactivity"]
]}

----------
Assay protocol: yeast display, Sf9 membrane polyspecificity reagent, FACS + sequencing; frameworks hold sequencing errors

{"columns": ["Sequence data", "polyreactivity (PSR sort gate)"],
 "data": [
  ["QVRLVESGGCLVQAGGSLRLSCAASGSTFRRYAMGWYRQAPGKERELVAAITVGGGSTYYADSVKGRFTISRDNAKNTVYLQMNSLKPEDTAVYDCSVSRYPYFRYDYWGQGTQVTVSS", "high polyreactivity"],
  ["QVQLVESGGGLVQAGCSLRLSCAASGFTFYQNVMGWYRQAPGKERELVASINRRGGSTYYADSVKGRFTISRDNAMNTVYLQKNSLKPEDTAVYYCAARTYRFYTRQLDYWGQGTQVTVSS", "high polyreactivity"],
  ["QVQHVESGGGLVQAGGSLRLSCAASGSILDGNTMGWYRQSPGKARELVAALTWDCTSTYYADSVKGRFTISRDNAKNSVYLQMNSLKPEDTAVYYCAATKGYSDPSTLYYAYIHYDYWGQGTQVTVSW", "low polyreactivity"],
  ["QVQLVESGGGLVQAGGSLRLSCAASARIQDKYARGWYRQAPGKERELVARIRFSGGDTYADSVKGRFTISRDNAKNTVYLQMNSLKPEDTAVYYCNKDRRNRWYAFDYWGQGTQVTVSS", "low polyreactivity"],
  ["QVQLEESGGGLVQAGGSLRLSCAASGYTFRPYAIGWYRQAAGKERVLVAAISRSGGRTYYADSVKGRFTISRDNAKNTVYLQMNSLIPEDTAVYYCAADRFSLSGFDSWGQGTQGTVSS", "low polyreactivity"],
  ["QVQLVESGGGLVQAGGSLSLSCAASGGIFAYNAMGWYRQAHGKEREWVATISSGVSTNYADSVKGRFTISRDNAKNTVYLQMNSLKPEDTAVYYCAAAIFITGYGSYGYWGQGTQVTVAS", "low polyreactivity"],
  ["QVQLVESGGGLVQAGGSLRLSCAASGRTFPFNAMGWYRQAPGKERELVAAIRWSGGSTYYADSVKGRFTISRDNAKNTVYLQMNSLKPEDTAVYYCAAVYPKIRSYRYGYWGQGTQVTVSS", "high polyreactivity"],
  ["QVQLVESGGGLVQAGGSLRLSCAASGITFRYYAMGWYRQAPGKERELVAAISGSGGSTYYADSVKGRFTISRDNAKNTVYLQMNSLKPEDTAVNYCNVDKGYSRSLRLGYDYWGQGTEVTVSS", "high polyreactivity"],
  ["QVQLVESGGGLVQAGGSLRLSCAASGSIFNYYAMGWYRQAPGKERELVAAITYGGASTYYADSVKGRFTISRDNAKNTVYLQMNSLKPEDTAVYYCAADSFTRWVFYRSTVRGFGYWGQGTQVTVSS", "high polyreactivity"],
  ["QVHLVESGGGLVQAGGSLRLSCAASGSTFFKNAMGWYRQAAGKERELVAAITWSGDRTYADSVKGRFTISRDNAKYTVYLQMNSLKPEDTAVYYCNVDITGYEDDYWGQGTQVTVSS", "low polyreactivity"],
  ["QVQLVESGGGLVQAGGSLRLSCAASGRTFYKYAMGWYIQAPGKERELVAAISSRGGRTYYADSVKGRFTISRDNAKNTVYLQMNSLKPEDTAVYYCAADYAVEWWGNWYEYWGQGTQVTVSS", "high polyreactivity"],
  ["QVQLVESGGGLVQAGGSLRLSCAASGLIFYTYAMGWYRQAPGKERELVAGISRSGTSTRYADSVKGRFTISRDNAKNTVYLQMNSLKPEDTAVYYCNAVGRSKHGYSRSYYWGQGTQVTVSS", "high polyreactivity"],
  ["QDQRVESGGGLDQAGGSLRLSCAASGSIFLVYAMGWYRQAPGKEMEFVAAITWSGGSTYYADSVKGRFTISRDIAKNTVYLQMNSLKPEDTAVYYCAVEIWIPTWYGLSGEYDYWGHGTQVTVSS", "low polyreactivity"],
  ["QVQLVESGGGLVHAGGSLRLSCAASGSILNGYVMGWYRQAPGKERELVGTYYADSVKGRFTISRDNAKNTVYLQMNSLKPEDTAVYYCAADIGDGSEFDYWGLGTQVTVSS", "low polyreactivity"],
  ["QGQLVESGGGLVHAGGRLRLSCAASGSTFTTYAMGWYRQAPGTERELVAAISTNGGRTFYADSVKGRFTISRDNAKTTFYLQMNSLKTEDTAVYYCAAQYGLYAPGYYYWGHGTQVTVSS", "low polyreactivity"],
  ["QVQLVESGGGLVQAGGSLRVSCAASGRTFARYALAWYRQAPGKERELVAAISRGGTTNYADSVKGRFTISRDNAKNTVYLQMNSLKPEDTAVDYCNRDFHLSHLSSARLDYWGQGTQVTVSS", "low polyreactivity"],
  ["QVQLVESGGGLVQAGGSLRLSCAASGSTNYPNAMGWYRQAPGKESELVARISRNGGSTYADSVKGRFTISRDNAKNTVYFQMNSLKPEDTEVYYCARSYASFSWLRTKEPYEYWGQGTQVTVSS", "low polyreactivity"],
  ["QVQLVESGGGLVQAGGSLRLSCAASGSIFYKYTMGWYRPAPGKERELVAAITKSGGSTYYADSVKGRFTISRDNAKNTVYLQMNSLKPEDTAVYYCAARRYRYYSRGSWGQGTQVTVSS", "high polyreactivity"],
  ["QVQLVESGRGLVQAGGSLRLSCAASGFTFYIYAMGWYRQAPGKERELVAAINFGGGGTYYADSVKGRFTISRDNAKNTVYLQMNSLKPEDTAVYYCAADYWYDYYSTEYDYWGQGTQVTVSS", "low polyreactivity"],
  ["QVQLVESWGGLVQAGGSLRLSCADSGYIYDHYDMGWYRQAPGKDRELVAAISRSAGSTYYADSVKGRFTITRDNAKNTVYLQMNSLKPEDSAVYYCAADGKYYHRRPGWPIYDYWGQGTQVTVSS", "high polyreactivity"],
  ["QVQLVESGGGLVQAGGSLRLSCAASGSIFGYNDMGCYRQAPGKEREMVAAITTSGDSTYYADSVKGRFTISRDNAKNTVYLQMNSLKPEDTAVYYCNADGEVVDWYHPYYVEYDYWGQGTQVTVSS", "low polyreactivity"]
]}
